Biological target: T1, 4H3926-bA
T1 chain: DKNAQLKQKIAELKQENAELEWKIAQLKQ
Test: two-hybrid library CCNG1;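 note: natural log of median RNA to DNA barcode read ratio; higher means stronger binding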
resultType: interaction score

Some binders with known interaction score results, for comparison:
binder	interaction score
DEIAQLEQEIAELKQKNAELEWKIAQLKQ [4H118-bA]	1.96
DKNAQLEQENAELKQKIAELEWEIAQLKQ [4H3298-bA]	-0.651

A = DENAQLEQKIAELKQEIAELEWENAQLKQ [4H1348-bA]
B = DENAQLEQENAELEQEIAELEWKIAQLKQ [4H1158-bA]
Query: Hi team, can someone confirm which has the larger interaction score: A or B ? Thanks. Kindly state the label of the option you pick.
Response: B
